biological target: recombinant human CD38 (human, UniProt P28907 43-300, limits assumed); assay: SPR (Biacore 8K), antibody captured, antigen injected;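 also: antibodies held on a CM5 chip through anti-human IgG Fc, antigen in 3-fold serial dilutions, 1 min association then 10 min dissociation at 25 °C, 1:1 Langmuir global fit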
Endpoint Label: koff (s⁻¹)
Dear colleague, please return just the value in s⁻¹, with no unit written.

Form field koff, entry 20B5 (antibody, human IgG1, kappa, V domains shown, Rabbit-human chimeric anti-CD38: rabbit VH and VL on human IgG1 and kappa constant regions) VH: QSLEESGGDLVKPGASLTLTCTASGFSFSSRYWICWVRQAPGKGLEWIACIVAGTTNTYYASWAKGRFTISKTSSTTVTLQMTSLTAADTATYFCAGDPRTGSNVGYFNLWGPGTLVTVSS VL: AQVLTQTPSPVSAAVGGTVTINCQASQSVYNNNYLAWFQQKPGQPPKLLIYSASTLASGVPSRFKGSGSGTQFTLTISEVQSDDAATYYCQAYYSGGIYAFGGGTEVVVKR : 0.0341

Further cases:
Form field koff, entry 25E4 (antibody, human IgG1, kappa, V domains shown, Rabbit-human chimeric anti-CD38: rabbit VH and VL on human IgG1 and kappa constant regions) VH: QSLEESGGRLVTPGTPLTLTCTVSGIDLSIYTMAWVRQAPGKGLEYIGIISGYGTTYYATWAKGRFIVSKTSTTVDLKITSPTTEDTATYFCVRTTVQSTDLWGPGTLVTVSS VL: DIVMTQTPASVEAAVGGTVTINCQASQNIYSNLAWYQQKPGQRPKLLIYKASTLASGVSSRFKGSGSGTEFTLTISDLASADAATYYCQSYYGATSSSFGYGFGGGTEVVVKR : 2.59e-05
